# measured on: KRAS G12V (Homo sapiens (Human), UniProt P01116+P62937, G12V)
# Sequence (P01116-2 other isoform, or with tags, fused parts or gaps G12V): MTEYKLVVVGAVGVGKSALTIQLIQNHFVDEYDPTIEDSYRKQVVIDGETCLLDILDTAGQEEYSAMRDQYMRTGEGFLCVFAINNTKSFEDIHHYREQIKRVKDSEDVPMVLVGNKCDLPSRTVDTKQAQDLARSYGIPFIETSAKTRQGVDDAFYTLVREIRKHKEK
# Sequence (P62937 whole entry): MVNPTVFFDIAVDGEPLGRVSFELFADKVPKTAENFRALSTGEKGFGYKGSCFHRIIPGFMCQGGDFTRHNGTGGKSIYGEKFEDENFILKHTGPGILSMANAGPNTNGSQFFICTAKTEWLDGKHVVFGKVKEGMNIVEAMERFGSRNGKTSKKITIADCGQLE
# procedure details: Ras-Raf (BRAF RBD) disruption / FRET / MOA assay, KRAS G12V
# Assay type: biochemical
# experimental conditions: read-out: IC50* KRAS G12V FRET data
readout type: IC50

// worked examples, IC50 included
Give IC50; test system KRAS G12V (Homo sapiens (Human), UniProt P01116+P62937, G12V); molecule CCn1c(-c2cccnc2[C@H](C)OC)c2c3cc(ccc31)-c1cc(cc(C(F)F)c1)C[C@H](NC(=O)[C@H](C1CCCC1)N(C)C(=O)[C@H]1CCN(C(=O)C#CC(C)(C)N3CCC3)C1)C(=O)N1CCC[C@H](N1)C(=O)OCC(C)(C)C2 (atropisomer, axis not shown) [Example A456]
1000 to 10000 nM

Give IC50; test system KRAS G12V (Homo sapiens (Human), UniProt P01116+P62937, G12V); molecule CCn1c(-c2cccnc2[C@H](C)OC)c2c3cc(ccc31)-c1cccc(c1)C[C@H](NC(=O)[C@H](C(C)C)N(C)C(=O)[C@H]1CCN(C(=O)/C=C/C(F)F)C1)C(=O)N1CCC[C@H](N1)C(=O)OCC(C)(C)C2 (atropisomer, axis not shown) [Example A485]
1000 to 10000 nM

Give IC50; test system KRAS G12V (Homo sapiens (Human), UniProt P01116+P62937, G12V); molecule C=CC(=O)N1CCOC2(C1)CN(C(=O)N(C)[C@H](C(=O)N[C@H]1Cc3cccc(c3)-c3ccc4c(c3)c(c(-c3cccnc3[C@H](C)OC)n4CC(F)(F)F)CC(C)(C)COC(=O)[C@@H]3CCCN(N3)C1=O)C(C)C)C2 (atropisomer, axis not shown) [Example A538]
100 to 1000 nM

Each molecule below has a reported value. Please supply its IC50.
1. CCn1c(-c2cccnc2[C@H](C)OC)c2c3cc(ccc31)-c1cc(O)cc(c1)C[C@H](NC(=O)[C@H](C(C)C)N1CC[C@]3(CCN(C(=O)/C=C/CN(C)C)C3)C1=O)C(=O)N1CCC[C@H](N1)C(=O)OCC(C)(C)C2 (atropisomer, axis not shown) [Example A268]
2. CCn1c(-c2cccnc2[C@H](C)OC)c2c3cc(ccc31)-c1csc(n1)C[C@H](NC(=O)[C@H](C(C)C)N(C)C(=O)[C@H]1CCN(C(=O)C#CC(C)(C)N(C)C)C1)C(=O)N1CCC[C@H](N1)C(=O)OCC(C)(C)C2 (atropisomer, axis not shown) [Example A291]
3. C=CC(=O)N1CC[C@@]2(CCN(C(=O)N(C)[C@H](C(=O)N[C@H]3Cc4nc(cs4)-c4ccc5c(c4)c(c(-c4cccnc4[C@H](C)OC)n5CC)CC(C)(C)COC(=O)[C@@H]4CCCN(N4)C3=O)C(C)C)C2)C1 (atropisomer, axis not shown) [Example A367]
4. CCn1c(-c2cccnc2[C@H](C)OC)c2c3cc(ccc31)-c1cc(cc(C(F)F)c1)C[C@H](NC(=O)[C@H](C(C)C)N(C)C(=O)[C@H]1CCN(C(=O)C#CC(C)(C)N3CCC3)C1)C(=O)N1CCC[C@H](N1)C(=O)OCC(C)(C)C2 (atropisomer, axis not shown) [Example A466]

1: 10 to 100 nM; 2: 1000 to 10000 nM; 3: 100 to 1000 nM; 4: 1000 to 10000 nM
